assay: Cytotoxicity against human HuH7 cells assessed as cell viability; format: cell-based, Huh-7
Entries and their CC50 values follow.
READOUT KIND: CC50

>>> df
                                        mol  reported
0  CCOC(=O)[C@H](C)N[P@]1(=O)OC[C@H]2O[C@@H](n3ccc(N)nc3=O)[C@](C)(O)[C@@H]2O1  > 100 µM
1  CCOC(=O)[C@H](C)N[P@@]1(=O)OC[C@H]2O[C@@H](n3ccc(N)nc3=O)[C@](C)(O)[C@@H]2O1  > 100 µM
2  CC(C)[C@H](N)C(=O)O[C@@H]1[C@@H](CO)O[C@@H](n2ccc(N)nc2=O)[C@]1(C)O  > 100 µM
